# assaySetup: in methyl acetate, 308.15 K
quantityName: solubility (mole fraction)
Lab note: jot down the number only; don't add units.

I am curious: what solubility (mole fraction) value has been reported for `O=C(O)CCCc1c[nH]c2ccccc12` ?
0.106

----------
# assaySetup: in n-pentanol, 313.15 K
quantityName: solubility (mole fraction)
Lab note: jot down the number only; don't add units.

I am curious: what solubility (mole fraction) value has been reported for `O=C(O)CCCc1c[nH]c2ccccc12` ?
0.0929

----------
# assaySetup: in isopropanol, 283.15 K
quantityName: solubility (mole fraction)
Lab note: jot down the number only; don't add units.

I am curious: what solubility (mole fraction) value has been reported for `O=C(O)CCCc1c[nH]c2ccccc12` ?
0.0406
